# Tested on: NCI-H23
# experimental-protocol: NCI tumour cell line growth inhibition, 48 h
Calls of active or inactive are those of the source. No stated cut-off is given here; in the data, active = GI50 up to about 1.1 µM and inactive = higher.
endpoint-name: GI50

compound	assay-system	GI50
COC(=O)CCC1CCc2c(OC)ccc(O)c2C1=O (stereo not given)	NCI-H23	> 100 µM (inactive)
CCC(C)COC(=O)c1ccc(/N=C\c2ccc(/C=N/c3ccc(C(=O)OCC(C)CC)cc3)cc2)cc1 (stereo not given)	NCI-H23	> 100 µM (inactive)
CC1=C[C@]2(CC(C)C3C(CC4(C)C5CCC6C(C)(C)C(=O)CC[C@@]67C[C@@]57CC[C@]34C)O2)OC1=O (stereo not given in full)	NCI-H23	7.64 µM (inactive)
CN(C)N1C(=O)CC2(CCN(CCCC(=O)c3ccc(F)cc3)CC2)C1=O	NCI-H23	> 100 µM (inactive)
CC(=O)C1C(=O)NC(=O)C1=O (stereo not given)	NCI-H23	> 100 µM (inactive)
N#Cc1ccc(-c2nc3c(N)ncnc3o2)cc1	NCI-H23	> 100 µM (inactive)

For each of the compounds below, note its GI50.
1. Cc1ccc(C)c(N2C(=O)C(=O)C(c3nc4ccccc4o3)C(=O)C2=O)c1
2. O=C(O)C1=NN(c2ccc(S(=O)(=O)O)cc2)C2(C1)C(Cl)C(=O)N2c1nc2ccccc2s1 (stereo not given)
3. C1CSCCSCCSCCSCCS1
4. O/N=C\c1c(O)ccc2ccccc12
5. C1=N\CCOCC/N=C/c2ccccc2OCc2cccc(n2)COc2ccccc2/1
6. O=C1C=CC(=O)N1Nc1ccc([N+](=O)[O-])cc1[N+](=O)[O-]
7. [N-]=[N+]=CC(=O)OCC1NC(=O)C(COC(=O)C=[N+]=[N-])NC1=O (stereo not given)

1. 43.6 µM (inactive)
2. 14.4 µM (inactive)
3. > 100 µM (inactive)
4. 83.6 µM (inactive)
5. 12.5 µM (inactive)
6. > 100 µM (inactive)
7. > 100 µM (inactive)
